These measurements were taken from patent US20040002442A1.

# Tested system: glucagon receptor present in the plasma membranes isolated from rat liver (rat, UniProt P30082 27-485)
# Sequence (P30082 27-485): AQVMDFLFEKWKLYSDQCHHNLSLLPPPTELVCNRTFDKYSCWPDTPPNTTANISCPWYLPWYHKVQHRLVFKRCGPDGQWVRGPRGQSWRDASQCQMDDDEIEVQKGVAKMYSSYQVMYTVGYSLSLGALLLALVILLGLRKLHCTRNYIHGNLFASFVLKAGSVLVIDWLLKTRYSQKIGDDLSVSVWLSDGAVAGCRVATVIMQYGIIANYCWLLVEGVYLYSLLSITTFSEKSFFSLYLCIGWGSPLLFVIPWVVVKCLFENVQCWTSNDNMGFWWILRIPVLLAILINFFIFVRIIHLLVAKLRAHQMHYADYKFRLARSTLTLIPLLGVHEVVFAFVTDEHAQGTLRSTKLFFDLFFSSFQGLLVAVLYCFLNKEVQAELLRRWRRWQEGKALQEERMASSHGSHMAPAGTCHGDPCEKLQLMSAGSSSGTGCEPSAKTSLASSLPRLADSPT
# Protocol details: cell-based or functional assay
Ends that are not written are not given here.
Observation type: % Inhib glucagon stimulated cAMP increase (10 uM peptide, rat hepatocytes) (%)

Known results for binders:
{"columns": ["Binder", "Observed"],
 "data": [
  ["HSQGTFTSDYAKYLDARRAKEFIAWLVKGR-NH2 [G27]", 31],
  ["HSQGTFTSDYARYLDARRAREFIAWLVRGRGK [G85]", 27.9],
  ["HSQGTFTSDYAKYLDARRAKEFIAWLVKGRG [G51]", 35.2]
]}

A. HSQGTFTSDYARYLDAAKAKEFIAWLVKGRG [G61]
B. HSQGTFTSDYARYLDARRAREFIKWLVRGRG [G83]
C. HSQGTFTSDYAKYLDARRACEFIAWLVKGRG [G71]
Arrange these binders by their % Inhib glucagon stimulated cAMP increase (10 uM peptide, rat hepatocytes), starting with the largest number. Give the order by naming the labels one after another as requested.
A, B, C
